Ref: PubChem BioAssay AID2060487

Tested on: 997537-175-T-J1-PDC complex spheroid viability;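 also: spheroids exposed to the agents for 7 days; 100% = DMSO vehicle control viability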
Assay: Anticancer human tumor 997537-175-T-J1-PDC patient-derived colon adenocarcinoma cell line growth inhibition [GQUAD]
Conditions: second compound 1 µM; first compound 3.16 µM; active compounds read low

| compound | assay_target | viability, T/C, % |
| --- | --- | --- |
| C#Cc1c(F)ccc2cc(O)cc(-c3ncc4c(N5CC6CCC(C5)N6)nc(OCC56CCCN5CC(F)C6)nc4c3F)c12 (configuration not stated) + Cc1[nH]c2ccc(F)cc2c1-c1nc2c3cccnc3c3ncccc3c2[nH]1 | 997537-175-T-J1-PDC complex spheroid viability | 29.5 |
| CC(=O)O[C@H]1C(=O)[C@@]2(C)[C@H]([C@H](OC(=O)c3ccccc3)[C@]3(O)C[C@H](OC(=O)[C@H](O)[C@@H](NC(=O)c4ccccc4)c4ccccc4)C(C)=C1C3(C)C)[C@]1(OC(C)=O)CO[C@@H]1C[C@@H]2O + Cc1[nH]c2ccc(F)cc2c1-c1nc2c3cccnc3c3ncccc3c2[nH]1 | 997537-175-T-J1-PDC complex spheroid viability | 56.8 |
| O=c1[nH]cc(F)c(=O)[nH]1 + Cc1cnc(CNC(=O)c2c(=O)c3ccc(N4CCCN(C)CC4)nc3n3c2sc2ccccc23)cn1 | 997537-175-T-J1-PDC complex spheroid viability | 67.2 |
| Nc1ccn(C2OC(CO)C(O)C2(F)F)c(=O)n1 (configuration not stated) + Cc1cnc(CNC(=O)c2c(=O)c3ccc(N4CCCN(C)CC4)nc3n3c2sc2ccccc23)cn1 | 997537-175-T-J1-PDC complex spheroid viability | 104 |
| O=C(c1cc(Cc2n[nH]c(=O)c3ccccc23)ccc1F)N1CCN(C(=O)C2CC2)CC1 + CN(C)c1ccc(Nc2c3ccc(NC(=O)CCN4CCCC4)cc3nc3cc(NC(=O)CCN4CCCC4)ccc23)cc1 | 997537-175-T-J1-PDC complex spheroid viability | 92.4 |
| C=CCn1c(=O)c2cnc(Nc3ccc(N4CCN(C)CC4)cc3)nc2n1-c1cccc(C(C)(C)O)n1 + Cc1cnc(CNC(=O)c2c(=O)c3ccc(N4CCCN(C)CC4)nc3n3c2sc2ccccc23)cn1 | 997537-175-T-J1-PDC complex spheroid viability | 76 |
| COc1cccc2c1C(=O)c1c(O)c3c(c(O)c1C2=O)CC(O)(C(=O)CO)CC3OC1CC(N)C(O)C(C)O1 (configuration not stated) + Cc1cnc(CNC(=O)c2c(=O)c3ccc(N4CCCN(C)CC4)nc3n3c2sc2ccccc23)cn1 | 997537-175-T-J1-PDC complex spheroid viability | 88 |
| C#Cc1c(F)ccc2cc(O)cc(-c3ncc4c(N5CC6CCC(C5)N6)nc(OCC56CCCN5CC(F)C6)nc4c3F)c12 (configuration not stated) + CN(C)c1ccc(Nc2c3ccc(NC(=O)CCN4CCCC4)cc3nc3cc(NC(=O)CCN4CCCC4)ccc23)cc1 | 997537-175-T-J1-PDC complex spheroid viability | 101 |
| CCCS(=O)(=O)Nc1ccc(F)c(C(=O)c2c[nH]c3ncc(-c4ccc(Cl)cc4)cc23)c1F + Cc1cnc(CNC(=O)c2c(=O)c3ccc(N4CCCN(C)CC4)nc3n3c2sc2ccccc23)cn1 | 997537-175-T-J1-PDC complex spheroid viability | 48.2 |
| O=c1[nH]cc(F)c(=O)[nH]1 + CN(C)c1ccc(Nc2c3ccc(NC(=O)CCN4CCCC4)cc3nc3cc(NC(=O)CCN4CCCC4)ccc23)cc1 | 997537-175-T-J1-PDC complex spheroid viability | 81.5 |
| COc1cccc2c1C(=O)c1c(O)c3c(c(O)c1C2=O)CC(O)(C(=O)CO)CC3OC1CC(N)C(O)C(C)O1 (configuration not stated) + Cc1[nH]c2ccc(F)cc2c1-c1nc2c3cccnc3c3ncccc3c2[nH]1 | 997537-175-T-J1-PDC complex spheroid viability | 80.3 |
| C#Cc1c(F)ccc2cc(O)cc(-c3ncc4c(N5CC6CCC(C5)N6)nc(OCC56CCCN5CC(F)C6)nc4c3F)c12 (configuration not stated) + Cc1cnc(CNC(=O)c2c(=O)c3ccc(N4CCCN(C)CC4)nc3n3c2sc2ccccc23)cn1 | 997537-175-T-J1-PDC complex spheroid viability | 105 |
| Nc1ccn(C2OC(CO)C(O)C2(F)F)c(=O)n1 (configuration not stated) + CN(C)c1ccc(Nc2c3ccc(NC(=O)CCN4CCCC4)cc3nc3cc(NC(=O)CCN4CCCC4)ccc23)cc1 | 997537-175-T-J1-PDC complex spheroid viability | 110 |
| O=C(c1cc(Cc2n[nH]c(=O)c3ccccc23)ccc1F)N1CCN(C(=O)C2CC2)CC1 + Cc1cnc(CNC(=O)c2c(=O)c3ccc(N4CCCN(C)CC4)nc3n3c2sc2ccccc23)cn1 | 997537-175-T-J1-PDC complex spheroid viability | 97 |
| COc1cc(C2c3cc4c(cc3C(OC3OC5COC(C)OC5C(O)C3O)C3COC(=O)C23)OCO4)cc(OC)c1O (configuration not stated) + Cc1[nH]c2ccc(F)cc2c1-c1nc2c3cccnc3c3ncccc3c2[nH]1 | 997537-175-T-J1-PDC complex spheroid viability | 67.7 |
| COc1cc(C2c3cc4c(cc3C(OC3OC5COC(C)OC5C(O)C3O)C3COC(=O)C23)OCO4)cc(OC)c1O (configuration not stated) + Cc1cnc(CNC(=O)c2c(=O)c3ccc(N4CCCN(C)CC4)nc3n3c2sc2ccccc23)cn1 | 997537-175-T-J1-PDC complex spheroid viability | 75.3 |
| CC(C)n1c(=O)n(C)c2cnc3cc(F)c(-c4ccc(OCCCN5CCCCC5)nc4)cc3c21 + CN(C)c1ccc(Nc2c3ccc(NC(=O)CCN4CCCC4)cc3nc3cc(NC(=O)CCN4CCCC4)ccc23)cc1 | 997537-175-T-J1-PDC complex spheroid viability | 92 |
